Molecular target: DRB1*03:01 (Homo sapiens, UniProt P01903+P01911, A100K/A102G/A103R/A169T/F55Y/I96L/K41T/L162R/M171V/P40S/Q125H/Q178H/Q39Y/R42S/S66N/T106N/T262R/W38E/Y61H)
Sequence (P01903 26-254 limits assumed, other chains not shown): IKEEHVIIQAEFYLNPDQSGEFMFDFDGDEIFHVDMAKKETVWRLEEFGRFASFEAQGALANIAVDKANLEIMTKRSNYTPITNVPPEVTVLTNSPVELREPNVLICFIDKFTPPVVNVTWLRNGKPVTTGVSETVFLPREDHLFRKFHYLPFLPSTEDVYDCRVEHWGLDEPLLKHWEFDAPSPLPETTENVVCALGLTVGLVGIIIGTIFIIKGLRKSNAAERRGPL
Test: HLA class II peptide binding, inhibition of radiolabeled peptide binding to purified MHC
Conditions: Other DR, competition with radiolabeled peptide, two-day incubation, three or more independent experiments
Ends that are not written are not given here.
Each entry below carries its recorded IC50.
Give the value in nM but do not write nM after it.

Task item: Tell me IC50 reported for VVLLVATEGRVRVNSAYQDK [Aggrecan 84–103 WT]
Reply: 530

Task item: Tell me IC50 reported for LQYMRADQAAGGLR [Collagen II 1236–1249 WT]
Reply: 159

Then this sequence:
Task item: Tell me IC50 reported for SAVRLRSSVPGVR [Vimentin 66–78 WT]
Reply: 12200

The reported measurements were obtained from paper PMC5421785.
